For each record, write down the corresponding Biodistribution in rats: Intestine.
method_summary: Biodistribution of the 99mTc(N) heterocomplexes in rats (organ uptake, heart accumulation, heart/lung and heart/liver ratios)
Format: in vivo, female Sprague-Dawley rats
settings: 10 min post injection
Numbers only, in % dose/g.

CCOCCN1CC[P](CCCOC)(CCCOC)[99Tc+]2(#[N])([S]C(N(CCOCC)CCOCC)=[S]2)[P](CCCOC)(CCCOC)CC1 [[^99mTc(N) (PNP5) (DBODC)]^+] | 9.04

# input for lookup
Query :: For the compound CCOCCN1CC[P](CCCOC)(CCCOC)[99Tc+]2(#[N])([S]C(N(CCOCC)C(C)C)=[S]2)[P](CCCOC)(CCCOC)CC1 [[^99mTc(N) (PNP5) (ISOET)]^+] , what Biodistribution in rats: Intestine is on record?
Result :: 7.12

###

method_summary: Biodistribution of the 99mTc(N) heterocomplexes in rats (organ uptake, heart accumulation, heart/lung and heart/liver ratios)
Assay type: in vivo, female Sprague-Dawley rats
settings: 120 min post injection
For each record, write down the corresponding Biodistribution in rats: Liver.
Numbers only, in % dose/g.

CCOCCN1CC[P](CCCOC)(CCCOC)[99Tc+]2(#[N])([S]C(N(CCOCC)CCOCC)=[S]2)[P](CCCOC)(CCCOC)CC1 [[^99mTc(N) (PNP5) (DBODC)]^+] | 0.10

# input for lookup
Query :: For the molecule CCOCCN1CC[P](CCCOC)(CCCOC)[99Tc+]2(#[N])([S]C(N(CCOCC)C(C)C)=[S]2)[P](CCCOC)(CCCOC)CC1 [[^99mTc(N) (PNP5) (ISOET)]^+] , what Biodistribution in rats: Liver is on record?
Result :: 0.23

###

method_summary: Biodistribution of the 99mTc(N) heterocomplexes in rats (organ uptake, heart accumulation, heart/lung and heart/liver ratios)
Type: in vivo, female Sprague-Dawley rats
settings: rats, 60 min
For each record, write down the corresponding Heart/lung ratio in biodistribution.
Answers are plain numbers.

Solved entries (count: 4):
CCOCCN1CC[P](CCCOC)(CCCOC)[99Tc+]2(#[N])([S]C(N(CCOCC)C(C)C)=[S]2)[P](CCCOC)(CCCOC)CC1 [[^99mTc(N) (PNP5) (ISOET)^+]] | 7.83
COCCC[P]1(CCCOC)CCN(CCOC)CC[P](CCCOC)(CCCOC)[99Tc+]12(#[N])[S]C(N(CCOC)CCOC)=[S]2 [[^99m−Tc(N) (PNP3) (DPODC)^+]] | 8.37
CCOCCC[P]1(CCCOCC)CCN(CCOCC)CC[P](CCCOCC)(CCCOCC)[99Tc+]12(#[N])[S]C(N(CCOCC)CCOCC)=[S]2 [[^99mTc(N) (PNP6) (DBODC)^+]] | 2.29
CCOCCN(CCOCC)C1=[S][99Tc+]2(#[N])([S]1)[P](CCCOC)(CCCOC)CCN(CCOC)CC[P]2(CCCOC)CCCOC [[^99m−Tc(N) (PNP3) (DBODC)^+]] | 9.60

Query :: For the molecule CCOCCN1CC[P](CCCOC)(CCCOC)[99Tc+]2(#[N])([S]C(N(CCOCC)CCOCC)=[S]2)[P](CCCOC)(CCCOC)CC1 [[^99mTc(N) (PNP5) (DBODC)^+]] , what Heart/lung ratio in biodistribution is on record?
Result :: 8.17

The origin of these recorded values is patent US7445765B2.
